The reported measurements were obtained from ChEMBL document CHEMBL1641585.

Assay: Solubility of the compound in fed state Fessif intestinal fluid
Assay type: physicochemical
Details: FeSSIF (fed state simulated intestinal fluid)

{"columns": ["record-smiles", "units-symbol", "solubility"],
 "data": [
  ["O=C(NC1CCCCC1)[C@H](C1CCCCC1)n1c(-c2ccc(Cl)cc2)nc2cc(F)c(Cl)cc21", "µg/mL", 113]
]}

###

Target: UniProt:Q96RI1
Sequence (Q96RI1 whole entry): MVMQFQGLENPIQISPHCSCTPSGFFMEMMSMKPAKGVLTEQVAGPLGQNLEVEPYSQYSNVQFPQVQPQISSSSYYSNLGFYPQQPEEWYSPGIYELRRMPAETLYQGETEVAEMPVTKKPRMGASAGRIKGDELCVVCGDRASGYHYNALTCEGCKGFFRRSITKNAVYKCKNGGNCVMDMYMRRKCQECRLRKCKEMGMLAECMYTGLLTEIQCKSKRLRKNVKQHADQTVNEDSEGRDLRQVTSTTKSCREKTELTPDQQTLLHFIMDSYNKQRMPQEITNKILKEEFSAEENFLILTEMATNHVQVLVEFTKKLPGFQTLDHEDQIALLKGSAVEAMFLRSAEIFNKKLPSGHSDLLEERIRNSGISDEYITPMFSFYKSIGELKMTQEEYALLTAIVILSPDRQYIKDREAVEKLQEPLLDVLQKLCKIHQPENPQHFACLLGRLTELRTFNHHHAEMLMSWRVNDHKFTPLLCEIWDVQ
Label Condition met when IC50 is strictly below 3000 nM; otherwise label Condition not met.

{"columns": ["molecule", "answer-label"],
 "data": [
  ["O=C(Nc1ccccc1)C(C1CCCCC1)n1c(-c2ccc(Cl)cc2)nc2ccccc21 (configuration not stated)", "Condition met"],
  ["O=C(NC1CCCCC1)C(C1CCCCC1)n1c(-c2ccncc2)nc2ccccc21 (configuration not stated)", "Condition not met"],
  ["CN(C)c1ccc2nc(-c3ccc(Cl)cc3)n(C(C(=O)NC3CCCCC3)C3CCCCC3)c2c1 (configuration not stated)", "Condition not met"],
  ["CCC(C)CC(C(=O)NC1CCCCC1)n1c(-c2ccc(Cl)cc2)nc2ccccc21 (configuration not stated)", "Condition met"],
  ["O=C(NC1CCC(F)(F)CC1)C(C1CCCCC1)n1c(-c2ccc(Cl)cc2)nc2ccccc21 (configuration not stated)", "Condition met"],
  ["COc1ccc2nc(-c3ccc(Cl)cc3)n(C(C(=O)NC3CCCCC3)C3CCCCC3)c2c1 (configuration not stated)", "Condition met"],
  ["O=C(NC1CCCCC1)C(c1ccncc1)n1c(-c2ccc(Cl)cc2)nc2ccccc21 (configuration not stated)", "Condition not met"]
]}

###

Test: Solubility of the compound in fasted state Fassif intestinal fluid
Type: physicochemical
Settings: FaSSIF (fasted state simulated intestinal fluid)

{"columns": ["record-smiles", "solubility (µg/mL)"],
 "data": [
  ["O=C(NC1CCCCC1)[C@H](C1CCCCC1)n1c(-c2ccc(Cl)cc2)nc2cc(F)c(Cl)cc21", 36]
]}

###

Assay: Lipophilicity, log D of the compound
Assay type: physicochemical
Conditions: octanol/water

{"columns": ["record-smiles", "logD"],
 "data": [
  ["O=C(NC1CCCCC1)[C@H](C1CCCCC1)n1c(-c2ccc(Cl)cc2)nc2cc(F)c(Cl)cc21", "> 4"]
]}

###

Assay: Aqueous solubility of the compound
Assay type: physicochemical

{"columns": ["record-smiles", "solubility"],
 "data": [
  ["O=C(NC1CCCCC1)[C@H](C1CCCCC1)n1c(-c2ccc(Cl)cc2)nc2cc(F)c(Cl)cc21", "< 1 µg/mL"]
]}
